Reported FACS-Seq fitted mean (log10) values for a set of variants
B1: library; a variant is named by its letters at N, in order (parent)
chain: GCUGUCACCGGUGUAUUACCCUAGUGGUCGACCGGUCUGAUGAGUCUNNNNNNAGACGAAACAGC

- Variants of: B1
- Protocol details: FACS-Seq fitted mean relative fluorescence mCherry/BFP with ligand (log10 relative fluorescence); ligand: hypoxanthine (xanthine aptamer); ligand concentration (+) FACS-Seq: 5 mM; higher = higher reporter protein expression
- Settings: HEK293T, ligand present: yes
Quantity: FACS-Seq fitted mean (log10)

{"columns": ["Mutant label", "Reported"],
 "data": [
  ["UGCCCA", -0.0574],
  ["UAAUUU", -0.129],
  ["GAGCGC", 0.556],
  ["GAUAAA", 0.621],
  ["UAAGAC", 0.507],
  ["CAACAC", 0.206],
  ["ACUGAU", 0.431],
  ["CCAACU", 0.58],
  ["AAACUU", 0.674],
  ["GCGGUG", 0.623]
]}
